Reference source for all entries: patent US6995185B2

- test-method-notes: log P determination by HPLC on reversed-phase column (C 18), EEC directive 79/831 Annex V.A8
- Type: physicochemical
- setup-conditions: reversed-phase HPLC column (C 18), pH 2.3, pH 2.3 (marked a), 0.1% aqueous phosphoric acid/acetonitrile, 43° C.
assay-metric: chromatographic logP

INSERT INTO measurements (compound, assay_metric, test_value) VALUES
  ('CC(C)C(C)OC(=O)[C@H]1CC(c2c(F)cccc2F)=NC1c1ccc(-c2ccc(OC(F)(F)F)cc2)cc1 (stereo partly shown)', 'chromatographic logP', 5.71),
  ('O=C(NCc1ccccc1)[C@H]1CC(c2c(F)cccc2F)=NC1c1ccc(-c2ccc(OC(F)(F)F)cc2)cc1 (stereo partly shown)', 'chromatographic logP', 3.94),
  ('O=C(OC1CCCc2ccccc21)[C@H]1CC(c2c(F)cccc2F)=NC1c1ccc(-c2ccc(OC(F)(F)F)cc2)cc1 (stereo partly shown)', 'chromatographic logP', 5.97),
  ('O=C(OC1CCCC1)[C@H]1CC(c2c(F)cccc2F)=NC1c1ccc(-c2ccc(OC(F)(F)F)cc2)cc1 (stereo partly shown)', 'chromatographic logP', 5.47);
